# ASSAYED SYSTEM: von Hippel-Lindau disease tumor suppressor/Son of sevenless homolog 1 (Homo sapiens, UniProt Q07889+P40337)
# Sequence (P40337 whole entry, looked up): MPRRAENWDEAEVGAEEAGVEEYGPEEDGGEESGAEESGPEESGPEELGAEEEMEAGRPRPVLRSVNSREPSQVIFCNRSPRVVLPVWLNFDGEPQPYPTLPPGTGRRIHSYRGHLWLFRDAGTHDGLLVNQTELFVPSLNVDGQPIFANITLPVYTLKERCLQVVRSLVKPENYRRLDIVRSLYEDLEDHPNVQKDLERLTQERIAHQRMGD
# Sequence (Q07889 whole entry, looked up): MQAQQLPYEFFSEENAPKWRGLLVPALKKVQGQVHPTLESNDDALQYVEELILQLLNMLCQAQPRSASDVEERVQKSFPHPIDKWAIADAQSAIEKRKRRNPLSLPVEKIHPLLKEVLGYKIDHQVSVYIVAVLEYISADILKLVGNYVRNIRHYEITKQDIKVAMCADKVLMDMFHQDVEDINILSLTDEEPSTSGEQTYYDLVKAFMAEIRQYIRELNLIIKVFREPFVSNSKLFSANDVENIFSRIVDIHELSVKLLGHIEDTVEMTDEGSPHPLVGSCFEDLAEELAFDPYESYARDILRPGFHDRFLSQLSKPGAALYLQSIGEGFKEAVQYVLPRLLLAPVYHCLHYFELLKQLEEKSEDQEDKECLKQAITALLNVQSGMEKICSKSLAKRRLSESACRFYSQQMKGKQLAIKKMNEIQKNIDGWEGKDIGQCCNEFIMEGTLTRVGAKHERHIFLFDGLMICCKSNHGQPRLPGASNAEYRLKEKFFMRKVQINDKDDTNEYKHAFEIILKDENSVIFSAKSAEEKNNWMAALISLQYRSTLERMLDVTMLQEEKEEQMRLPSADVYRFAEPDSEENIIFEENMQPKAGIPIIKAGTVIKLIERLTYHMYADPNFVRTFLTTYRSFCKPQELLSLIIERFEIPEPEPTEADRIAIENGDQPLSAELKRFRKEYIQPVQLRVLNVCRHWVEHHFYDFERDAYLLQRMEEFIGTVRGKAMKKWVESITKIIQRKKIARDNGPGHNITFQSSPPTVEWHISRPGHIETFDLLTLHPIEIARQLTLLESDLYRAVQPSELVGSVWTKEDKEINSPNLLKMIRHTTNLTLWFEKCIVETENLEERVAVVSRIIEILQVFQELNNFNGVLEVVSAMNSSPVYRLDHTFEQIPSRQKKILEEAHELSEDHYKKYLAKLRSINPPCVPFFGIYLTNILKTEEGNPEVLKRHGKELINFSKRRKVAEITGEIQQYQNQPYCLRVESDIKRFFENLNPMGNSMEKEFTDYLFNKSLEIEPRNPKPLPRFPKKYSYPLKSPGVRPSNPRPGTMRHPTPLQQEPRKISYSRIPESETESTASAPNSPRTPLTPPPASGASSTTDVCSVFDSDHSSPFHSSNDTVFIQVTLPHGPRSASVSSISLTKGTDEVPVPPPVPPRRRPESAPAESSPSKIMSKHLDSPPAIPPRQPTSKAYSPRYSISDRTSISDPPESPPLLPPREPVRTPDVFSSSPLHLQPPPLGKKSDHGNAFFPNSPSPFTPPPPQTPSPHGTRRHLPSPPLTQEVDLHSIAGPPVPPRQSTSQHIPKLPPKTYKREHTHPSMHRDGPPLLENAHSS
# ASSAY SUMMARY: Protac activity at VHL/SOS1 in human PANC-1 cells assessed as SOS1 degradation at 1 uM by Western blotting analysis relative to control
# Assay type: cell-based
MEASUREMENT KIND: Activity (%)

{"columns": ["STRUCTURE", "UNITS OF MEASURE", "Activity"],
 "data": [
  ["CNCc1ccccc1-c1csc([C@@H](C)Nc2nc(C)nc3cc(OC)c(C4=CCN(C(=O)CCCCC(=O)N[C@H](C(=O)N5C[C@H](O)C[C@H]5C(=O)NCc5ccc(-c6scnc6C)cc5)C(C)(C)C)CC4)cc23)c1", "%", 0]
]}

a = CNCc1ccccc1-c1csc([C@@H](C)Nc2nc(C)nc3cc(OC)c(OCCCCCC(=O)N[C@H](C(=O)N4C[C@H](O)C[C@H]4C(=O)NCc4ccc(-c5scnc5C)cc4)C(C)(C)C)cc23)c1
b = COc1cc2nc(C)nc(N[C@H](C)c3cc(N)cc(C(F)(F)F)c3)c2cc1OCCCCCCC(=O)N[C@H](C(=O)N1C[C@H](O)C[C@H]1C(=O)NCc1ccc(-c2scnc2C)cc1)C(C)(C)C
c = CNCc1ccccc1-c1csc([C@@H](C)Nc2nc(C)nc3cc(OC)c(C4=CCN(C(=O)CCC(=O)N[C@H](C(=O)N5C[C@H](O)C[C@H]5C(=O)NCc5ccc(-c6scnc6C)cc5)C(C)(C)C)CC4)cc23)c1
List these items ordered by Activity, big to small. Response format: the labels, sorted as the prompt asks.
b, c, a

====

# System: SW837
# ASSAY SUMMARY: Antiproliferative activity against human SW837 cells incubated for 6 days in presence of 10 uM (2S,4R)-1-((S)-2-(5-((4-(((R)-1-(3-amino-5-(trifluoromethyl)phenyl)ethyl)amino)-7-methoxy-2-methylquinazolin-6-yl)oxy)pentanamido)-3,3-dimethylbutanoyl)-4-hydroxy-N-(4-(4-methylthiazol-5-yl)benzyl)pyrrolidine-2-carboxamide by CCK8 assay
# Type: functional, cell-based
# STUDY CONDITIONS: SW837, 144 h
MEASUREMENT KIND: IC50 (nM)
// units = nM; emit number, no label

Please supply the value of reported IC50 for the item C=CC(=O)N1CCN(c2nc(=O)n(-c3c(C)ccnc3C(C)C)c3nc(-c4c(O)cccc4F)c(F)cc23)[C@@H](C)C1 [SOTORASIB]
2

====

# ASSAYED SYSTEM: Protein cereblon/Son of sevenless homolog 1 (Homo sapiens) (UniProt Q07889+Q96SW2)
# Sequence (Q07889 whole entry, looked up): as above
# Sequence (Q96SW2 whole entry, looked up): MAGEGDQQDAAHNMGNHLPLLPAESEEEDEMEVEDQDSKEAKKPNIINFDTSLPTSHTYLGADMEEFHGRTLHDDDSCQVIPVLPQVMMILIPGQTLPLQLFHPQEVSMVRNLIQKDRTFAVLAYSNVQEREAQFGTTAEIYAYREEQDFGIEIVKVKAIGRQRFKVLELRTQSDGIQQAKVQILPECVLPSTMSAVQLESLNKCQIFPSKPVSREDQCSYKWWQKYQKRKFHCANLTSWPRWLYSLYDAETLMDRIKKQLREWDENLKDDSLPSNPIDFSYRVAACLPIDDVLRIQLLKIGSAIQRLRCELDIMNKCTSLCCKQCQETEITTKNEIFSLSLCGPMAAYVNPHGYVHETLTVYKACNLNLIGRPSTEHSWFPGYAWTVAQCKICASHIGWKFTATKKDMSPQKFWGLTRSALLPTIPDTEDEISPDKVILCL
# ASSAY SUMMARY: Protac activity at CRBN/SOS1 in human PANC-1 cells assessed as SOS1 degradation at 10 uM by Western blotting analysis relative to control
# Format: cell-based
MEASUREMENT KIND: Activity (%)

{"columns": ["COMPOUND", "ASSAYED SYSTEM", "UNITS OF MEASURE", "Activity"],
 "data": [
  ["COc1cc2nc(C)nc(N[C@H](C)c3cc(-c4ccccc4CNCCCCCCCCNc4ccc5c(c4)C(=O)N(C4CCC(=O)NC4=O)C5=O)cs3)c2cc1OC (some centres undefined)", "Protein cereblon/Son of sevenless homolog 1 (Homo sapiens) (UniProt Q07889+Q96SW2)", "%", 0],
  ["COc1cc2nc(C)nc(C[C@H](C)c3cc(-c4ccccc4CNCCCCCCCCCNc4ccc5c(c4)C(=O)N(C4CCC(=O)NC4=O)C5=O)cs3)c2cc1OC (some centres undefined)", "Protein cereblon/Son of sevenless homolog 1 (Homo sapiens) (UniProt Q07889+Q96SW2)", "%", 0]
]}

P = COc1cc2nc(C)nc(N[C@H](C)c3cc(-c4ccccc4CNCCCCCCNc4ccc5c(c4)C(=O)N(C4CCC(=O)NC4=O)C5=O)cs3)c2cc1OC (some centres undefined)
Q = COc1cc2nc(C)nc(N[C@H](C)c3cc(-c4ccccc4CNCCCCCCCNc4ccc5c(c4)C(=O)N(C4CCC(=O)NC4=O)C5=O)cs3)c2cc1OC (some centres undefined)
Field: lower recorded Activity (choose P or Q ) Give the label of your selection.
P
(P: 0%, Q: 3.4%)

====

# ASSAYED SYSTEM: von Hippel-Lindau disease tumor suppressor/Son of sevenless homolog 1 (Homo sapiens, UniProt Q07889+P40337)
# ASSAY SUMMARY: Protac activity at VHL/SOS1 in human K562 cells assessed as SOS1 degradation at 1 uM by Western blotting analysis relative to control
# Assay type: cell-based
MEASUREMENT KIND: Activity (%)

# count of solved cases: 2
{"columns": ["STRUCTURE", "MEASUREMENT KIND", "EXPERIMENTAL RESULT"],
 "data": [
  ["COc1cc2nc(C)nc(N[C@H](C)c3cc(-c4ccccc4CNCCCCCCCCC(=O)N[C@H](C(=O)N4C[C@H](O)C[C@H]4C(=O)NCc4ccc(-c5scnc5C)cc4)C(C)(C)C)cs3)c2cc1OC", "Activity", 0],
  ["COc1cc2nc(C)nc(N[C@H](C)c3cc(N)cc(C(F)(F)F)c3)c2cc1OCCCCCC(=O)N[C@H](C(=O)N1C[C@H](O)C[C@H]1C(=O)NCc1ccc(-c2scnc2C)cc1)C(C)(C)C", "Activity", 0]
]}

A = COc1cc2nc(C)nc(N[C@H](C)c3cc(N)cc(C(F)(F)F)c3)c2cc1OCCCC(=O)N[C@H](C(=O)N1C[C@H](O)C[C@H]1C(=O)NCc1ccc(-c2scnc2C)cc1)C(C)(C)C
B = COc1cc2nc(C)nc(N[C@H](C)c3cc(-c4ccccc4CNCCCCCCCC(=O)N[C@H](C(=O)N4C[C@H](O)C[C@H]4C(=O)NCc4ccc(-c5scnc5C)cc4)C(C)(C)C)cs3)c2cc1OC
C = CNCc1ccccc1-c1csc([C@@H](C)Nc2nc(C)nc3cc(OC)c(C4=CCN(C(=O)CCCC(=O)N[C@H](C(=O)N5C[C@H](O)C[C@H]5C(=O)NCc5ccc(-c6scnc6C)cc5)C(C)(C)C)CC4)cc23)c1
Hey, can you sort those compounds up there by Activity, smallest first? Response format: the labels, sorted as the prompt asks.
A, C, B
(A: 0%, C: 2.3%, B: 27.4%)

====

# Tested on: NCI-H358
# ASSAY SUMMARY: Antiproliferative activity against human NCI-H358 cells incubated for 6 days by CCK8 assay
# Type: functional, cell-based
# STUDY CONDITIONS: NCI-H358, 144 h
MEASUREMENT KIND: IC50 (µM)
// units = µM; emit number, no label

{"columns": ["MOLECULE", "UNITS OF MEASURE", "IC50"],
 "data": [
  ["C=CC(=O)N1CCN(c2nc(=O)n(-c3c(C)ccnc3C(C)C)c3nc(-c4c(O)cccc4F)c(F)cc23)[C@@H](C)C1 [SOTORASIB]", "µM", 0.01]
]}

Let us examine a further case.
Please supply the value of reported IC50 for the item COc1cc2nc(C)nc(N[C@H](C)c3cc(N)cc(C(F)(F)F)c3)c2cc1OCCCCC(=O)N[C@H](C(=O)N1C[C@H](O)C[C@H]1C(=O)NCc1ccc(-c2scnc2C)cc1)C(C)(C)C
2.45

====

IC50: recorded values
# Test system: MIA PaCa-2
# ASSAY SUMMARY: Antiproliferative activity against human MIA PaCa-2 cells incubated for 6 days by CCK8 assay
# Assay type: functional, cell-based
# STUDY CONDITIONS: MIA PaCa-2, 144 h
// units = µM; emit number, no label

{"columns": ["COMPOUND", "UNITS OF MEASURE", "EXPERIMENTAL RESULT"],
 "data": [
  ["COc1cc2nc(C)nc(N[C@H](C)c3cc(N)cc(C(F)(F)F)c3)c2cc1OCCCCC(=O)N[C@H](C(=O)N1C[C@H](O)C[C@H]1C(=O)NCc1ccc(-c2scnc2C)cc1)C(C)(C)C", "µM", 3.48]
]}

Please supply the value of reported IC50 for the item C=CC(=O)N1CCN(c2nc(=O)n(-c3c(C)ccnc3C(C)C)c3nc(-c4c(O)cccc4F)c(F)cc23)[C@@H](C)C1 [SOTORASIB]
0.037

====

# ASSAY SUMMARY: Cmax in ICR mouse at 10 mg/kg, po measured upto 24 hrs by LC-MS/MS analysis
# Format: ADME, organism-based
# STUDY CONDITIONS: in vivo
MEASUREMENT KIND: Cmax (ng/mL)
// units = ng/mL; emit number, no label

Please supply the value of reported Cmax for the item COc1cc2nc(C)nc(N[C@H](C)c3cc(N)cc(C(F)(F)F)c3)c2cc1OCCCCC(=O)N[C@H](C(=O)N1C[C@H](O)C[C@H]1C(=O)NCc1ccc(-c2scnc2C)cc1)C(C)(C)C
1650
